test system: 171881-019-R-J1-PDC tumor spheroid viability; assay: Anticancer human tumor 171881-019-R-J1-PDC patient-derived invasive breast carcinoma cell line growth inhibition [PI3K]; settings: second compound 0.316 µM; first compound 0.1 µM; stronger effect = lower value; spheroids with HUVEC and MSC
Assign labels as follows, please: MET for viability, T/C below 30%; NOT MET for viability, T/C equal to or exceeding 30%.

For orientation, consider the following solved cases.
>>> classification("CCCS(=O)(=O)Nc1ccc(F)c(C(=O)c2c[nH]c3ncc(-c4ccc(Cl)cc4)cc23)c1F + CC(Nc1ccc2c(c1)OCCn1cc(N3C(=O)OCC3C(F)F)nc1-2)C(N)=O")
"NOT MET"
>>> classification("CCN1CCN(Cc2ccc(Nc3ncc(F)c(-c4cc(F)c5nc(C)n(C(C)C)c5c4)n3)nc2)CC1 + COc1c(OCCCN2CCOCC2)ccc2c3n(c(=NC(=O)c4cnc(N)nc4)nc12)CCN3")
"MET"
>>> classification("C=CC(=O)N1CCN(c2nc(=O)n(-c3c(C)ccnc3C(C)C)c3nc(-c4c(O)cccc4F)c(F)cc23)C(C)C1 (stereo not given) + CC(Nc1ncnc2nc[nH]c12)c1cc2cccc(Cl)c2c(=O)n1-c1ccccc1")
"NOT MET"

Data request: Report whether reported viability, T/C is lower than 30% (strictly) for Cn1ncnc1[C@H]1c2n[nH]c(=O)c3cc(F)cc(c23)N[C@@H]1c1ccc(F)cc1 + COc1c(OCCCN2CCOCC2)ccc2c3n(c(=NC(=O)c4cnc(N)nc4)nc12)CCN3
Data returned: MET

Data request: Is viability, T/C of CC1(C)CCC(Nc2ncc(C(F)(F)F)c(-c3c[nH]c4c(P(C)(C)=O)c(C#N)ccc34)n2)CN1 (stereo not given) + CC(Nc1ccc2c(c1)OCCn1cc(N3C(=O)OCC3C(F)F)nc1-2)C(N)=O strictly below 30%?
Data returned: MET

----------
Consider the following compounds; for each one, report its viability, T/C.
test system: 171881-019-R-J1-PDC tumor spheroid viability; experiment: Anticancer human tumor 171881-019-R-J1-PDC cell line growth inhibition [PI3K]; conditions: second compound 0.0316 µM; first compound 10 µM; stronger effect = lower value; spheroids with HUVEC and MSC;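 note: spheroids exposed to compound for 7 days before viability read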;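 for viability, T/C: 100% = DMSO vehicle-treated spheroids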
Give bare numbers, in %.

Some entries whose results are on file:
>>> val("CC(C)NCC(C(=O)N1CCN(c2ncnc3c2C(C)CC3O)CC1)c1ccc(Cl)cc1 (stereo not given) + CC(Nc1ccc2c(c1)OCCn1cc(N3C(=O)OCC3C(F)F)nc1-2)C(N)=O")
8.08
>>> val("C[C@@H](NC(=O)c1ncnc(N)c1Cl)c1ncc(C(=O)Nc2cc(C(F)(F)F)c(Cl)cn2)s1 + CC(Nc1ncnc2nc[nH]c12)c1cc2cccc(Cl)c2c(=O)n1-c1ccccc1")
51.3
>>> val("CC1(C)CCC(Nc2ncc(C(F)(F)F)c(-c3c[nH]c4c(P(C)(C)=O)c(C#N)ccc34)n2)CN1 (stereo not given) + Cc1nc(NC(=O)N2CCCC2C(N)=O)sc1-c1ccnc(C(C)(C)C(F)(F)F)c1")
22.9

I'm hoping you can list viability, T/C for every compound here, please.
1. CNC(=O)c1ccc(N2C(=S)N(c3ccc(C#N)c(C(F)(F)F)c3)C(=O)C2(C)C)cc1F + COc1c(OCCCN2CCOCC2)ccc2c3n(c(=NC(=O)c4cnc(N)nc4)nc12)CCN3
2. CNC(=O)c1ccc(N2C(=S)N(c3ccc(C#N)c(C(F)(F)F)c3)C(=O)C2(C)C)cc1F + CC(Nc1ncnc2nc[nH]c12)c1cc2cccc(Cl)c2c(=O)n1-c1ccccc1

Data returned:
1. 21.8
2. 71.2

----------
test system: 171881-019-R-J1-PDC tumor spheroid viability; assay: Anticancer human tumor 171881-019-R-J1-PDC cell line growth inhibition [PI3K]; details: curve of first compound; second compound 0.01 µM; spheroids with HUVEC and MSC;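 note: spheroids exposed to compound for 7 days before viability read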
Give IC50 for every item shown.

Solved cases (2 shown):
>>> val("CCN1CCN(Cc2ccc(Nc3ncc(F)c(-c4cc(F)c5nc(C)n(C(C)C)c5c4)n3)nc2)CC1 + COc1c(OCCCN2CCOCC2)ccc2c3n(c(=NC(=O)c4cnc(N)nc4)nc12)CCN3")
"> 1000 nM"
>>> val("C#Cc1c(F)ccc2cc(O)cc(-c3ncc4c(N5CC6CCC(C5)N6)nc(OCC56CCCN5CC(F)C6)nc4c3F)c12 (stereo not drawn) + CC(Nc1ccc2c(c1)OCCn1cc(N3C(=O)OCC3C(F)F)nc1-2)C(N)=O")
"99.6 nM"

Turning now to a further compound:
// CNC(=O)c1ccc(N2C(=S)N(c3ccc(C#N)c(C(F)(F)F)c3)C(=O)C2(C)C)cc1F + COc1c(OCCCN2CCOCC2)ccc2c3n(c(=NC(=O)c4cnc(N)nc4)nc12)CCN3 : IC50 value = < 31.6 nM

----------
system: 171881-019-R-J1-PDC tumor spheroid viability; assay: Anticancer human tumor 171881-019-R-J1-PDC cell line growth inhibition [PI3K]; conditions: second compound 0.316 µM; first compound 0.316 µM; stronger effect = lower value; spheroids with HUVEC and MSC;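 note: spheroids exposed to compound for 7 days before viability read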;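 for viability, T/C: 100% = DMSO vehicle-treated spheroids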
endpoint: viability, T/C (%)
One number for each entry, in %.

Batch of 3 compounds: report viability, T/C for each.
1. CC1(C)CCC(Nc2ncc(C(F)(F)F)c(-c3c[nH]c4c(P(C)(C)=O)c(C#N)ccc34)n2)CN1 (stereo not drawn) + Cc1nc(NC(=O)N2CCCC2C(N)=O)sc1-c1ccnc(C(C)(C)C(F)(F)F)c1
2. CC1(C)CCC(CN2CCN(c3ccc(C(=O)NS(=O)(=O)c4ccc(NCC5CCOCC5)c([N+](=O)[O-])c4)c(Oc4cnc5[nH]ccc5c4)c3)CC2)=C(c2ccc(Cl)cc2)C1 + CC(Nc1ccc2c(c1)OCCn1cc(N3C(=O)OCC3C(F)F)nc1-2)C(N)=O
3. C[C@@H](NC(=O)c1ncnc(N)c1Cl)c1ncc(C(=O)Nc2cc(C(F)(F)F)c(Cl)cn2)s1 + CC(Nc1ccc2c(c1)OCCn1cc(N3C(=O)OCC3C(F)F)nc1-2)C(N)=O

Data returned:
1. 49.6
2. 28.5
3. 24.9

----------
system: 171881-019-R-J1-PDC tumor spheroid viability; experiment: Anticancer human tumor 171881-019-R-J1-PDC cell line growth inhibition [PI3K]; details: second compound 0.316 µM; first compound 0.316 µM; stronger effect = lower value; spheroids with HUVEC and MSC;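 note: spheroids exposed to compound for 7 days before viability read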;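 for viability, T/C: 100% = DMSO vehicle-treated spheroids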
Give measured viability, T/C for each item. Keep answers brief.

>>> val("CCCS(=O)(=O)Nc1ccc(F)c(C(=O)c2c[nH]c3ncc(-c4ccc(Cl)cc4)cc23)c1F + COc1c(OCCCN2CCOCC2)ccc2c3n(c(=NC(=O)c4cnc(N)nc4)nc12)CCN3")
"3.05%"
>>> val("CNC(=O)c1ccc(N2C(=S)N(c3ccc(C#N)c(C(F)(F)F)c3)C(=O)C2(C)C)cc1F + CC(Nc1ncnc2nc[nH]c12)c1cc2cccc(Cl)c2c(=O)n1-c1ccccc1")
"85.3%"

Could you now consider this next molecule?
Consider C[C@@H](NC(=O)c1ncnc(N)c1Cl)c1ncc(C(=O)Nc2cc(C(F)(F)F)c(Cl)cn2)s1 + Cc1nc(NC(=O)N2CCCC2C(N)=O)sc1-c1ccnc(C(C)(C)C(F)(F)F)c1 . Its measured viability, T/C is 51.8%

----------
For each of the compounds below, state its viability, T/C.
test system: 171881-019-R-J1-PDC tumor spheroid viability; experiment: Anticancer human tumor 171881-019-R-J1-PDC cell line growth inhibition [PI3K]; conditions: second compound 0.316 µM; first compound 0.316 µM; stronger effect = lower value; spheroids with HUVEC and MSC;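 note: spheroids exposed to compound for 7 days before viability read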;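 for viability, T/C: 100% = DMSO vehicle-treated spheroids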
One number for each entry, in %.

Before answering, review these 4 worked examples.
>>> val("CC(C)NCC(C(=O)N1CCN(c2ncnc3c2C(C)CC3O)CC1)c1ccc(Cl)cc1 (stereo not given) + CC(Nc1ncnc2nc[nH]c12)c1cc2cccc(Cl)c2c(=O)n1-c1ccccc1")
50.9
>>> val("Cn1nccc1Nc1nccc(-c2ccn(C(CO)c3ccc(Cl)c(F)c3)c(=O)c2)n1 (stereo not given) + Cc1nc(NC(=O)N2CCCC2C(N)=O)sc1-c1ccnc(C(C)(C)C(F)(F)F)c1")
22.6
>>> val("CCN1CCN(Cc2ccc(Nc3ncc(F)c(-c4cc(F)c5nc(C)n(C(C)C)c5c4)n3)nc2)CC1 + CC(Nc1ccc2c(c1)OCCn1cc(N3C(=O)OCC3C(F)F)nc1-2)C(N)=O")
46.4
>>> val("CCCS(=O)(=O)Nc1ccc(F)c(C(=O)c2c[nH]c3ncc(-c4ccc(Cl)cc4)cc23)c1F + Cc1nc(NC(=O)N2CCCC2C(N)=O)sc1-c1ccnc(C(C)(C)C(F)(F)F)c1")
73.7

Would you kindly look at the next entry?
Tested system 171881-019-R-J1-PDC tumor spheroid viability; viability, T/C recorded for CC1(C)CCC(Nc2ncc(C(F)(F)F)c(-c3c[nH]c4c(P(C)(C)=O)c(C#N)ccc34)n2)CN1 (stereo not given) + CC(Nc1ccc2c(c1)OCCn1cc(N3C(=O)OCC3C(F)F)nc1-2)C(N)=O was 30.2
